# Tested on: SF-268 CNS
# TEST_SUMMARY: NCI tumour cell line growth inhibition, 48 h
PROPERTY_LABEL: TGI

{"COMPOUND": "CCN(CC)CCN(Cc1ccc(F)cc1)c1ccc(CO)c(Cl)c1", "REPORTED": "> 100 µM"}
{"COMPOUND": "CC1=C(Cl)C=CP(=O)(OC(C)C)C1 (stereo not given)", "REPORTED": "> 100 µM"}
{"COMPOUND": "CN1C=Cc2nccc3cc4c(c1c23)OCO4", "REPORTED": "11.3 µM"}
{"COMPOUND": "CCOC(=O)C1=C(C)N(NC(N)=O)C(C)(O)C12CCOC2=O (stereo not given)", "REPORTED": "> 100 µM"}

Query: Dear colleague, I am looking for the recorded TGI of the following compound: C[CH2][Ge]([CH2]C)([CH2]C)[O]C(=O)CCC(=O)[O][Ge]([CH2]C)([CH2]C)[CH2]C
Result: > 100 µM

Query: Dear colleague, I am looking for the recorded TGI of the following compound: CC(=O)[CH-]C(=O)c1ccccc1.CC(=O)[CH-]C(=O)c1ccccc1.Cl.[O-]c1ccccn1.[O-]c1ccccn1.[Ti+4]
Result: > 100 µM

* * *

# reported TGI; entries follow
# System: SR leukemia
# TEST_SUMMARY: NCI tumour cell line growth inhibition, 48 h
Where a SMILES comes first, the peptide text is derived from it.

Worked set:
{"COMPOUND": "COc1ccccc1N=N/C(=N\\NC(=O)c1ccc(C)cc1)c1ccc(N(CCC#N)CCC#N)cc1C", "MEASUREMENT_TARGET": "SR leukemia", "PROPERTY_LABEL": "TGI", "REPORTED": "> 100 µM"}
{"COMPOUND": "CCC(C)C1NC(=O)C2CCCN2C(=O)CNC(=O)C(C)NC(=O)C(Cc2ccccc2)NC(=O)C(C(C)C)NC1=O (stereo not given) (cyclo(GPIVFA); configuration not given here)", "MEASUREMENT_TARGET": "SR leukemia", "PROPERTY_LABEL": "TGI", "REPORTED": "> 100 µM"}
{"COMPOUND": "Oc1ccc(CCNCc2cc3c(cc2Br)OCO3)cc1", "MEASUREMENT_TARGET": "SR leukemia", "PROPERTY_LABEL": "TGI", "REPORTED": "> 100 µM"}

Query: Dear colleague, I am looking for the recorded TGI of the following compound: CCN(CC)CCN(Cc1ccc(F)cc1)c1ccc(CO)c(Cl)c1
Result: 67.9 µM

Query: Dear colleague, I am looking for the recorded TGI of the following compound: CN(C)C=NCCN1CCOCC1
Result: > 100 µM

* * *

# Tested on: SK-MEL-28 melanoma
# TEST_SUMMARY: NCI tumour cell line growth inhibition, 48 h
PROPERTY_LABEL: TGI

{"COMPOUND": "NC(=O)C(=O)C(c1ccccc1)S(=O)(=O)Cc1ccccc1 (configuration not stated)", "TGI": "> 100 µM"}

Continue with the next compound.
Query: Missing value: TGI, SK-MEL-28 melanoma, entry CN(C)S(=O)(=O)n1cnc(CO)c1 . Fill in?
Result: > 100 µM

* * *

# Test system: A549 NSCLC
# TEST_SUMMARY: NCI tumour cell line growth inhibition, 48 h; in the data active = GI50 below about 0.43 µM; inactive = the rest
The categories you may choose from are class 1 for active, class 0 for inactive

{"MOLECULE": "COCCN1CCN(Cc2ccc(-c3n[nH]c4c3C(=O)c3c(NC(=O)NN5CCOCC5)cccc3-4)cc2)CC1", "CLASS_ASSIGNMENT": "class 1"}
{"MOLECULE": "C/C=C/[C@H]1O[C@@H]2C(=C[C@H]1O)C(=O)O[C@H]2C", "CLASS_ASSIGNMENT": "class 0"}
{"MOLECULE": "CCCCC(=O)N/N=C/c1c(O)ccc2ccccc12", "CLASS_ASSIGNMENT": "class 0"}
{"MOLECULE": "COc1cc(N2CCN(C(C)C)CC2)ccc1Nc1nc(Nc2cccc(F)c2C(=O)O)c2cc[nH]c2n1", "CLASS_ASSIGNMENT": "class 0"}
{"MOLECULE": "Cc1ccc(C2=C(c3ccc(C)cc3)C3(c4ccc(C)cc4)C4C(=O)c5ccccc5C(=O)C4C2(c2ccc(C)cc2)S3=O)cc1 (centres undefined)", "CLASS_ASSIGNMENT": "class 0"}

Please examine the following record next.
Query: # lookup: test call for Cc1ccc(C(SCC(N)C(=O)O)(c2ccccc2)c2ccccc2)cc1 (centres undefined)
Result: class 1

* * *

# reported TGI; entries follow
# Tested on: NCI-H522 lung
# TEST_SUMMARY: NCI tumour cell line growth inhibition, 48 h
Answer format: numeric, µM implied, no suffix.

Worked set:
{"MOLECULE": "Cc1ccc(C(SCC(N)C(=O)O)(c2ccccc2)c2ccccc2)cc1 (stereo not given)", "REPORTED": 85.1}
{"MOLECULE": "CC(C)(C)c1cc(OCc2nnc3sc(=S)[nH]n23)c(Cl)cc1OCc1nnc2sc(=S)[nH]n12", "REPORTED": 37.8}
{"MOLECULE": "COc1ccc(/C(Cl)=C(\\c2ccc(OCCN(C)C)cc2)c2ccc(OC(=O)C(C)(C)C)cc2)cc1", "REPORTED": 28.6}

Query: Dear colleague, I am looking for the recorded TGI of the following molecule: CC(C)(C)OC(=O)C1=C2C=C(O)C=CC2(C)N(Cc2ccccc2)C1=N (stereo not given)
Result: 4

Query: Dear colleague, I am looking for the recorded TGI of the following molecule: CCCCNC(=O)Oc1ccc(/C(=C(/C)Cc2ccc(OC)cc2)c2ccc(OCCN3CCCC3)cc2)cc1
Result: 4.05

* * *

# Test system: DMS 114 small cell lung
# TEST_SUMMARY: NCI tumour cell line growth inhibition, 48 h
# reported TGI; entries follow

Worked set:
{"COMPOUND": "COc1ccc(/C(Cl)=C(\\c2ccc(OCCN(C)C)cc2)c2ccc(OC(=O)C(C)(C)C)cc2)cc1", "PROPERTY_LABEL": "TGI", "REPORTED": "24.6 µM"}
{"COMPOUND": "COC(=O)C1C=NNC1C(=O)OC (configuration not stated)", "PROPERTY_LABEL": "TGI", "REPORTED": "> 100 µM"}
{"COMPOUND": "CC1(C)C=N[N+]2(C)C3C=CC(CC3)C12 (configuration not stated)", "PROPERTY_LABEL": "TGI", "REPORTED": "> 100 µM"}

Query: Dear colleague, I am looking for the recorded TGI of the following compound: CC1C[C@]2(C[C@@H](C)C(=O)O2)O[C@@H]2CC3(C)[C@@H]4CCC5C(C)(C)OC(=O)C[C@H]6OO[C@]4(CC[C@]3(C)C12)CC56O (some centres not stated)
Result: > 100 µM

Query: Dear colleague, I am looking for the recorded TGI of the following compound: Cc1cccc(N2C(=O)C(=O)C(c3nc4ccccc4s3)/C(=N/NC(=S)NN)C2=O)c1C (configuration not stated)
Result: > 100 µM

Query: Dear colleague, I am looking for the recorded TGI of the following compound: Clc1ccc2nc(-c3ccccc3)nc(Cl)c2c1
Result: > 100 µM

Query: Dear colleague, I am looking for the recorded TGI of the following compound: NC(=O)N/N=C(/Cc1nc2ccc(C(=O)c3ccccc3)cc2[nH]c1=O)C(=O)Nc1ccc(C(F)(F)F)cc1[N+](=O)[O-]
Result: > 100 µM

* * *

# Tested on: U251 CNS
The categories you may choose from are active, inactive

{"COMPOUND": "CN1CCN(c2nc(NCCCNc3ccnc4cc(Cl)ccc34)c3ccccc3n2)CC1", "CLASS_ASSIGNMENT": "inactive"}
{"COMPOUND": "COC(=O)/C=C1/SC(N2N=C(c3cccs3)CC2c2ccc(F)cc2)=NC1=O (stereo not given)", "CLASS_ASSIGNMENT": "inactive"}
{"COMPOUND": "COc1cc(-c2n/c(=C\\c3c(O)[nH]c4cc(Cl)ccc34)cc3c2=Nc2ccccc2-3)cc(OC)c1OC", "CLASS_ASSIGNMENT": "inactive"}

Please examine the following record next.
Query: # lookup: test call for Cn1c2ccccc2c2c3[nH][nH]c(=O)c3c3c4ccccc4[nH]c3c21
Result: inactive

* * *

# System: NCI-H226 lung
# TEST_SUMMARY: NCI tumour cell line growth inhibition, 48 h
PROPERTY_LABEL: TGI

Worked set:
{"COMPOUND": "Cc1ncc([N+](=O)[O-])n1CCNCCCn1ccnc1[N+](=O)[O-]", "TGI": "> 100 µM"}
{"COMPOUND": "CC(/C=C/c1ccccc1)=N\\NC(N)=S", "TGI": "> 100 µM"}
{"COMPOUND": "CCOC(=O)C1=C(C)N(NC(N)=O)C(C)(O)C12CCOC2=O (stereo not given)", "TGI": "> 100 µM"}
{"COMPOUND": "COc1cc(Nc2nnc3n2S(=O)(=O)c2cc(C)c(Cl)cc2S3)cc(OC)c1", "TGI": "55.1 µM"}
{"COMPOUND": "COc1cc(C2C3=C(COC3=O)Nc3c2ccc2c3CCCC2)cc2c1OCO2 (stereo not given)", "TGI": "0.185 µM"}

Continue with the next compound.
Query: Dear colleague, I am looking for the recorded TGI of the following compound: C=C(CC(=O)O)C(=O)O (tested in a mixture with another compound)
Result: > 50 µg/mL
